- tested on: Human CD73 (Homo sapiens, UniProt P21589)
- Construct: purchased R&D Systems; host or cells: CHO cells
- Sequence (P21589 27-549): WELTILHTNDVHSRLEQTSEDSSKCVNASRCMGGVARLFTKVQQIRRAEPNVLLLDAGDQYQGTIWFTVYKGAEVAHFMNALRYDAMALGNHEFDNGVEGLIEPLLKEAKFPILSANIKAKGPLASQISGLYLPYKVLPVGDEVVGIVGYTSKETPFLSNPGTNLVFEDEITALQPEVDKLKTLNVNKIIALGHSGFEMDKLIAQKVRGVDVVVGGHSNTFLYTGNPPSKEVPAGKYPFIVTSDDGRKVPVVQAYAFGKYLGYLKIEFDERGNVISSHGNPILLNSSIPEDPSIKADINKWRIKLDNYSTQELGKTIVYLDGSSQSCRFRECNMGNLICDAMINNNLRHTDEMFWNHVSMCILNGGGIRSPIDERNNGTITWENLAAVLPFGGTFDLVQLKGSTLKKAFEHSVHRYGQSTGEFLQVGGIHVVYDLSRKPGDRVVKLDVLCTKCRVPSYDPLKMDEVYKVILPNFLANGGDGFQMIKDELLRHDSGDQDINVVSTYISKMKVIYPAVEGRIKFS
- experiment: CD73 Enzyme Assay
- Format: biochemical
- condition set: 0.25 nM hCD73, 25 μM AMP, kinetic read at 360 nm; read-out: CD73 Enzyme Assay IC50
pIC50: −log10 of the molar value.
quantity kind: pIC50

Recorded pIC50, per entry:
> print(dat)
                                   compound                                 tested.on        result
1  O=P(O)(O)COC[C@H]1O[C@@H](n2cnc3c(N4CCCC4c4ccccc4)ncnc32)[C@H](O)[C@@H]1O (stereo partly shown)  Human CD73 (Homo sapiens, UniProt P21589)  6.00 to 7.00
2  C[C@H](c1ccccc1)N(C)c1nc(Cl)nc2c1ccn2[C@@H]1O[C@H](COCP(=O)(OCOC(=O)C(C)(C)C)OCOC(=O)C(C)(C)C)[C@@H](O)[C@H]1O  Human CD73 (Homo sapiens, UniProt P21589)        < 6.00
3  O=P(O)(O)COC[C@H]1O[C@@H](n2cnc3c2ncn2cnnc32)[C@H](O)[C@@H]1O  Human CD73 (Homo sapiens, UniProt P21589)        < 6.00
4  O=P(O)(O)COC[C@H]1O[C@@H](n2cnc3c(Nc4ccccc4)ncnc32)[C@H](O)[C@@H]1O  Human CD73 (Homo sapiens, UniProt P21589)        < 6.00
5  C[C@@H](Nc1nc(Cl)nc2c1ccn2[C@@H]1O[C@H](CS(=O)(=O)CP(=O)(O)O)[C@@H](O)[C@H]1O)c1cccc(C#N)c1  Human CD73 (Homo sapiens, UniProt P21589)        > 8.00

Which pIC50 is listed for Cc1ccc([C@@H](C)Nc2nc(C#N)nc3c2ccn3[C@@H]2O[C@H](COCP(=O)(O)O)[C@@H](O)[C@H]2O)cc1 ? 7.00 to 8.00

Which pIC50 is listed for N#Cc1nc(NC2CC(F)(F)C2)c2cnn([C@@H]3O[C@H](CS(=O)(=O)CP(=O)(O)O)[C@@H](O)[C@H]3O)c2n1 ? > 8.00

Which pIC50 is listed for C[C@@H](Nc1cc(Cl)nc2c1ccn2[C@@H]1O[C@H](COCP(=O)(O)O)[C@@H](O)[C@H]1O)c1ccccc1 ? > 8.00

Which pIC50 is listed for O=P(O)(O)COC[C@H]1O[C@@H](n2ccc3c(N4CCC(F)(F)C4)nc(Cl)nc32)[C@H](O)[C@@H]1O ? > 8.00

Which pIC50 is listed for N#Cc1nc(NC2CCOCC2)c2ccn([C@@H]3O[C@H](COCP(=O)(O)O)[C@@H](O)[C@H]3O)c2n1 ? 6.00 to 7.00

Which pIC50 is listed for C[C@@H](Nc1nc(Cl)nc2c1ccn2[C@@H]1O[C@H](COCP(=O)(O)O)[C@@H](O)[C@H]1O)c1ccc(F)cc1 ? > 8.00
